LD50 values by entry
# experimentalProtocol: Mammalian toxicity, oral, Swiss white mice (LD50)
# Type: in vivo
# setupConditions: mouse, in vivo, propylene glycol carrier
parameter: LD50

molecule	observedResult
CSC(=NOC(=O)N(C)S(=O)OCC1COC(C)(C)O1)C(=O)N(C)C (centres unmarked)	31 mg/kg
C=CCOCC(COS(=O)N(C)C(=O)Oc1cccc(C)c1)OS(=O)N(C)C(=O)Oc1cccc(C)c1 (centres unmarked)	> 1000 mg/kg
Cc1cccc(OC(=O)N(C)S(=O)OCC23OCC4OC(C)(C)OC4C2OC(C)(C)O3)c1 (centres unmarked)	> 1000 mg/kg
CSC(=NOC(=O)N(C)S(=O)OCC(COCc1ccccc1)OS(=O)N(C)C(=O)ON=C(SC)C(=O)N(C)C)C(=O)N(C)C (centres unmarked)	12.5 to 25 mg/kg
CC(C)OCC(COS(=O)N(C)C(=O)Oc1cccc2ccccc12)OS(=O)N(C)C(=O)Oc1cccc2ccccc12 (centres unmarked)	> 1000 mg/kg
CSC(C)=NOC(=O)N(C)S(=O)OCC1COC(C)(C)O1 (centres unmarked)	84 mg/kg
C=CCOC(COS(=O)N(C)C(=O)ON=C(C)SC)COS(=O)N(C)C(=O)ON=C(C)SC (centres unmarked)	88 mg/kg
Cc1cccc(OC(=O)N(C)S(=O)OCC(COCc2ccccc2)OS(=O)N(C)C(=O)Oc2cccc(C)c2)c1 (centres unmarked)	> 1000 mg/kg

====

# experimentalProtocol: Mammalian toxicity, oral, Swiss white mice (LD50)
# Format: in vivo
# setupConditions: mouse, in vivo, propylene glycol carrier
Catalogue of compounds with associated LD50

compound	LD50
Cc1cccc(OC(=O)N(C)S(=O)OCC(COC(C)C)OS(=O)N(C)C(=O)Oc2cccc(C)c2)c1 (stereo not drawn) [XXIII]	> 1000 mg/kg
C=CCOCC(COS(=O)N(C)C(=O)ON=C(SC)C(=O)N(C)C)OS(=O)N(C)C(=O)ON=C(SC)C(=O)N(C)C (stereo not drawn) [XXIX]	12.5 to 25 mg/kg
CN(C(=O)Oc1cccc2ccccc12)S(=O)OC1C2OC(C)(C)OC2COC12COC(C)(C)O2 (stereo not drawn) [XXXXII]	> 1000 mg/kg
CN(C(=O)Oc1cccc2ccccc12)S(=O)OCC12OCC3OC(C)(C)OC3C1OC(C)(C)O2 (stereo not drawn) [XXXXI]	> 1000 mg/kg
C=CCOCC(COS(=O)N(C)C(=O)ON=C(C)SC)OS(=O)N(C)C(=O)ON=C(C)SC (stereo not drawn) [XI]	50 to 80 mg/kg
C=CCOCC(COS(=O)N(C)C(=O)Oc1cccc2ccccc12)OS(=O)N(C)C(=O)Oc1cccc2ccccc12 (stereo not drawn) [XXXVI]	> 1000 mg/kg
CC(C)Oc1ccccc1OC(=O)N(C)S(=O)OCC(COS(=O)N(C)C(=O)Oc1ccccc1OC(C)C)OS(=O)N(C)C(=O)Oc1ccccc1OC(C)C (stereo not drawn) [XXXXIII]	> 1000 mg/kg
CN(C(=O)Oc1cccc2ccccc12)S(=O)OCC(COS(=O)N(C)C(=O)Oc1cccc2ccccc12)OS(=O)N(C)C(=O)Oc1cccc2ccccc12 (stereo not drawn) [XXXX]	> 1000 mg/kg
CSC(C)=NOC(=O)N(C)S(=O)OCC(COCc1ccccc1)OS(=O)N(C)C(=O)ON=C(C)SC (stereo not drawn) [XIII]	50 to 100 mg/kg
CSC(C)=NOC(=O)N(C)S(=O)OCC(COS(=O)N(C)C(=O)ON=C(C)SC)OS(=O)N(C)C(=O)ON=C(C)SC (stereo not drawn) [XV]	50 to 100 mg/kg
Cc1cccc(OC(=O)N(C)S(=O)OCC2COC(C)(C)O2)c1 (stereo not drawn) [XX]	> 1000 mg/kg
CN(C(=O)Oc1cccc2ccccc12)S(=O)OCC(COCc1ccccc1)OS(=O)N(C)C(=O)Oc1cccc2ccccc12 (stereo not drawn) [XXXVIII]	> 1000 mg/kg
C=CCOC(COS(=O)N(C)C(=O)Oc1cccc(C)c1)COS(=O)N(C)C(=O)Oc1cccc(C)c1 (stereo not drawn) [XXI]	> 1000 mg/kg
C=CCOC(COS(=O)N(C)C(=O)Oc1cccc2ccccc12)COS(=O)N(C)C(=O)Oc1cccc2ccccc12 (stereo not drawn) [XXXVII]	> 1000 mg/kg
CC(C)Oc1ccccc1OC(=O)N(C)S(=O)OCC12OCC3OC(C)(C)OC3C1OC(C)(C)O2 (stereo not drawn) [XXXXIV]	> 1000 mg/kg
CSC(=NOC(=O)N(C)S(=O)OC1C(C2COC(C)(C)O2)OC2OC(C)(C)OC21)C(=O)N(C)C (stereo not drawn) [XXXV]	25 to 50 mg/kg
Cc1cccc(OC(=O)N(C)S(=O)OC2C(C3COC(C)(C)O3)OC3OC(C)(C)OC32)c1 (stereo not drawn) [XXVI]	> 1000 mg/kg
Cc1cccc(OC(=O)N(C)S(=O)OC2C3OC(C)(C)OC3COC23COC(C)(C)O3)c1 (stereo not drawn) [XXV]	> 1000 mg/kg
